Sourced from the Human Domainome abundance scans (Beltran et al. 2025)

B1: Membrane-associated guanylate kinase, WW and PDZ domain-containing protein 2, residues 601 to 682; numbered along this chain, Q86UL8 (parent)
chain: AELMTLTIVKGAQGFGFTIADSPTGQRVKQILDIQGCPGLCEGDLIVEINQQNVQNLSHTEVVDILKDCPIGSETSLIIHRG

Variants of: B1
Experiment: abundance fitness (aPCA) (normalised: wild type 0, dead -1); higher = more abundant; growth selection in yeast, the domain comes from the species named
Conditions: Homo sapiens

- variantCode: "T18Q"
  abundance fitness: -0.066
- variantCode: "S73T"
  abundance fitness: -0.095
- variantCode: "K29R"
  abundance fitness: -0.047
- variantCode: "G36R"
  abundance fitness: -0.069
- variantCode: "K29D"
  abundance fitness: 0.108
- variantCode: "P38C"
  abundance fitness: -0.158
- variantCode: "T60Y"
  abundance fitness: -0.165
- variantCode: "F17R"
  abundance fitness: -1.12
- variantCode: "S58P"
  abundance fitness: -0.174
- variantCode: "T60D"
  abundance fitness: -0.136
- variantCode: "D68K"
  abundance fitness: 0.005
- variantCode: "V54W"
  abundance fitness: -0.779
- variantCode: "D64A"
  abundance fitness: -0.191
- variantCode: "T60C"
  abundance fitness: 0.17
- variantCode: "V47Q"
  abundance fitness: 0.033
- variantCode: "K29A"
  abundance fitness: -0.095
- variantCode: "Q55L"
  abundance fitness: -0.106
- variantCode: "I34D"
  abundance fitness: -0.036
- variantCode: "Q35L"
  abundance fitness: -0.115
- variantCode: "Q51S"
  abundance fitness: -0.018
- variantCode: "E61S"
  abundance fitness: -0.2
- variantCode: "T60W"
  abundance fitness: -0.075
- variantCode: "G72W"
  abundance fitness: -0.243
- variantCode: "Q26C"
  abundance fitness: -0.039
- variantCode: "E48W"
  abundance fitness: -0.158
- variantCode: "D33R"
  abundance fitness: -0.061
- variantCode: "T18F"
  abundance fitness: -0.149
- variantCode: "N56G"
  abundance fitness: 0.003
- variantCode: "G25V"
  abundance fitness: -0.514
- variantCode: "S58W"
  abundance fitness: -0.021
- variantCode: "G25K"
  abundance fitness: -0.267
- variantCode: "R27L"
  abundance fitness: -0.007
- variantCode: "H59W"
  abundance fitness: -0.074
- variantCode: "G25L"
  abundance fitness: -0.538
- variantCode: "P70F"
  abundance fitness: -0.074
- variantCode: "E61G"
  abundance fitness: -0.036
- variantCode: "P38S"
  abundance fitness: -0.056
- variantCode: "V54P"
  abundance fitness: -0.806
- variantCode: "N50G"
  abundance fitness: -0.058
- variantCode: "P38R"
  abundance fitness: -0.13
- variantCode: "R81Q"
  abundance fitness: -0.051
- variantCode: "G43E"
  abundance fitness: 0.059
- variantCode: "P38Q"
  abundance fitness: -0.121
- variantCode: "E74S"
  abundance fitness: -0.16
- variantCode: "R27M"
  abundance fitness: -0.066
- variantCode: "K29C"
  abundance fitness: -0.091
